target: human norepinephrine transporter (Homo sapiens); construct: isolate and amplify each of the three full-length cDNAs from an appropriate cDNA library; expressed in transfected cells; host or cells: HEK293 cells, stably transfected (pcDNA3.1-type vector); membranes used; test: Scintillation proximity assay, [3H]-nisoxetine binding at the norepinephrine transporter
Sequence (P23975 whole entry): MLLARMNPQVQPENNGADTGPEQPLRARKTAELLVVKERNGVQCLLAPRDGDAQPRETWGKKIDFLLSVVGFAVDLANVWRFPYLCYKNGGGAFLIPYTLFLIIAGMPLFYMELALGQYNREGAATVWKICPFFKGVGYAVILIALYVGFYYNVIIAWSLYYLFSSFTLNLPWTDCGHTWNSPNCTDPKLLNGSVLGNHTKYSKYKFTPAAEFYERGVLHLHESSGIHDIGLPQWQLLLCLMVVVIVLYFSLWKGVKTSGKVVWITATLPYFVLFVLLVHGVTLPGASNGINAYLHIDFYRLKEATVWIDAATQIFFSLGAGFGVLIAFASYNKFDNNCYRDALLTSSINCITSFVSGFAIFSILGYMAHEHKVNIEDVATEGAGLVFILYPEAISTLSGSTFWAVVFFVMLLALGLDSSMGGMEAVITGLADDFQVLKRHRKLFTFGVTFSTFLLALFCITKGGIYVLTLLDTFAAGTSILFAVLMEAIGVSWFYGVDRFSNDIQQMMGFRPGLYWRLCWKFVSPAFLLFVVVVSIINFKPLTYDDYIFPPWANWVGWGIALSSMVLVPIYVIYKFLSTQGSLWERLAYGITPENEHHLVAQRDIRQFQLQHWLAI
Where a name gives a salt, the structure may show the parent alone.
Quantity name: Ki (nM)
// return numeric value only (unit: nM, not printed)

GET /values?readout=Ki&item= COc1ccc(F)cc1CC(O)(c1ccccc1)[C@H]1CNCCO1 (stereo in doubt) [Example 8, hydrochloride]
3.6

====

molecular target: human norepinephrine transporter (Homo sapiens); construct: isolate and amplify each of the three full-length cDNAs from an appropriate cDNA library; expressed in transfected cells; host or cells: HEK293 cells, stably transfected (pcDNA3.1-type vector); membranes used; assay: Scintillation proximity assay, [3H]-nisoxetine binding at the norepinephrine transporter; conditions: scintillation proximity assay, 3H-nisoxetine, HEK-293 membranes; read-out: NET Ki
Where a name gives a salt, the structure may show the parent alone.
Quantity name: Ki (nM)
Kindly provide the numeric value in nM only, without the unit symbol.

Given the entry OC(Cc1ccccc1OC(F)(F)F)(c1ccccc1)[C@H]1CNCCO1 (stereo in doubt) [Example 5, hydrochloride] , report its measured Ki.
12.4
